Provenance of the data: patent US20230272055A1

# measured_on: T1, Recombinant MBP-mutCALR Type 1 fusion protein (human)
# T1 construct: custom made at Cepter; also called recombinant mutCALR protein
# protocol_notes: SPR, IgG captured, 1:1 fit, Exp. 2
Consider the following binders; for each one, report its koff.
Express the result in s⁻¹ but write the number alone.

binder anti-mutCALR antibody clone 178 (antibody, human IgG1, lambda, N297A, V domains shown, human IgG1 N297A variant of clone 17) VH: EVQLVQSGAEVKKPGASVKVSCKVSGYTLTELSMQWVRQAPGKGLEWMGGFDPDEGETMYAEKFQGRLTVTEDTSTDTVYMELSSLRSEDTAVYFCATSPGYDFFDYWGQGTLVTVSS VL: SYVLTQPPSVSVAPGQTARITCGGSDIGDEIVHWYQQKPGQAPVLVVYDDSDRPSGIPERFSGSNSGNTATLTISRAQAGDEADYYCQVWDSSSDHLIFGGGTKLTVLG , koff observed: 0.00123

binder anti-mutCALR antibody clone 183 (antibody, human IgG1, lambda, N297A, V domains shown) VH: EVQLVQSGAEVKKPGASVKVSCKVSGYTLTELSMQWVRQAPGKGLEWMGGFDPDEGETMYAEKFQGRLTVTEDTSTDTVYMELRSLTSEDTALYFCATSPGYDFFDYWGQGTLVTVSS VL: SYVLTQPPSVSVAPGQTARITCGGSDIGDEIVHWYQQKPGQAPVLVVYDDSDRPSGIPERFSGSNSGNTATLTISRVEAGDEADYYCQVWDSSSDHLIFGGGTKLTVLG , koff observed: 0.00124
